Target: Stp1 (UniProt B3LFK1)
Sequence: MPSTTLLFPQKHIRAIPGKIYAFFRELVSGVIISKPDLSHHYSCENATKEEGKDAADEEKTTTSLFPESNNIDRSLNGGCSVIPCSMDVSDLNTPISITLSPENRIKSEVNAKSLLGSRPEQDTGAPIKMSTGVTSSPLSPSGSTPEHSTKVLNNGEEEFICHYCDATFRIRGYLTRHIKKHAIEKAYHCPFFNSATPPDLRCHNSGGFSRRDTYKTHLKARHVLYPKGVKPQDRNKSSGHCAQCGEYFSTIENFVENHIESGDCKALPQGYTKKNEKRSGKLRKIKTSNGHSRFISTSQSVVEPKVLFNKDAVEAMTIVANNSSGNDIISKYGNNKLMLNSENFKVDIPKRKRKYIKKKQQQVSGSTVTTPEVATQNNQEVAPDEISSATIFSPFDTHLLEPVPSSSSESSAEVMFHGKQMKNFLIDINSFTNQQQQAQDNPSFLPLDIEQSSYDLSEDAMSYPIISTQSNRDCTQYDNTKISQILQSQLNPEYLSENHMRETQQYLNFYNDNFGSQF
Assay: PBM E-score (8-mer binding enrichment) (E-score (-0.5 to 0.5)); higher = stronger / more preferred TF binding
Settings: protein concentration: 200 nM; construct: GST-full length
Whole data set: some 33,000 sequences, median “E-score (-0.5 to 0.5)” near -0.016, cut for the highest 2% near 0.32. The list comes from a sample in which the highest values are over-represented; it also holds close analogues and randomly drawn sequences.
The threshold is inclusive: PBM E-score of exactly 0.05 counts as 1; values below receive -1.

1. AACACGGG    1
2. ACCGTCCC    -1
3. ACATGTAT    1
4. AAAGGGGG    -1
5. ATCACGGC    1
6. GGCGCCAC    1
7. AGTATTCG    -1
8. ACCGTCTA    -1
9. AGAACCTA    -1
10. ATGTTACA    1
11. AACTTCAT    1
12. AGCACGGA    1
13. ACCGAAAT    -1
14. CGCGCCAA    1
15. AGCACGGG    1
16. AGATCAGG    -1
17. AGCGCCAA    -1
18. GCCGTCCC    1
19. CACACGGG    1
20. GGGCATGA    -1
21. CGCGCCAC    1
22. GGACAATA    1

###

Reported PBM E-score by item:
Molecular target: Stp1 (UniProt B3LFK1)
Sequence: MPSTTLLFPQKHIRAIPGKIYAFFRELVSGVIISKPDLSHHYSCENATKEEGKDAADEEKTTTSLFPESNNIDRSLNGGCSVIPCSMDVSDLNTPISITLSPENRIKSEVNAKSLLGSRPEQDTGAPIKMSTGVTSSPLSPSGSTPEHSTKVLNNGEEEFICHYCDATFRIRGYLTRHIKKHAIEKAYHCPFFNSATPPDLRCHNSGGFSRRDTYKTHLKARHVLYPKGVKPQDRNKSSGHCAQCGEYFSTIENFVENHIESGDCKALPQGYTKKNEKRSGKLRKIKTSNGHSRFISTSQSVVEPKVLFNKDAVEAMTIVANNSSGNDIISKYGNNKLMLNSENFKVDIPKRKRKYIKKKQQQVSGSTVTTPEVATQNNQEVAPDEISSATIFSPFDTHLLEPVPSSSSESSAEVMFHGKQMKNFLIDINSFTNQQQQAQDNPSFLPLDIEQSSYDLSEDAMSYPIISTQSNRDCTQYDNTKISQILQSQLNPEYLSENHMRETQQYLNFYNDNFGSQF
Experiment: PBM E-score (8-mer binding enrichment) (E-score (-0.5 to 0.5)); higher = stronger / more preferred TF binding
Conditions: protein concentration: 200 nM; construct: GST-full length
In all, about 33,000 sequences were measured (“E-score (-0.5 to 0.5)”: median about -0.016, highest 2% from about 0.32 on). The sample holds the highest values, similar sequences and a random draw of the others, so the mix is not that of the screen.
READOUT LABEL: PBM E-score

1) CAAGCGCC    0.219
2) ATGCGGCA    0.467
3) GTGCGGGA    0.041
4) CCCGTTTA    0.185
5) TCGCGACA    -0.0531
6) ACAGCGCC    0.249
7) AGTAGACA    0.0181
8) CGGCCGGA    -0.15
9) ACCGTTGA    -0.134
10) AAGCGGTC    -0.149
11) AGGCCGTA    0.298
12) CTGCGGCA    0.422
13) ACCGTTTA    0.168
14) CCGAGCCA    -0.0385
15) AAGGCGAA    0.197
16) CCAGCGCC    0.235
17) CCGCGGGA    0.218
18) AGCGTTTA    -0.127
19) CTTATGGA    -0.0787
20) GCCGTTGA    0.383
21) CTAGCGCC    0.16
22) ACGAGCCT    -0.0868
23) CCCCAGTC    -0.324
24) ATAGCGCG    0.136
25) GCTCAACA    0.00726
26) ACGGCGAG    0.437
27) AGTTTGTC    -0.0407
28) GCCGTTTA    0.443
29) GGCCCGTA    -0.0728
30) AGGGCGAT    0.0677
31) CCGAGCCG    0.334
32) GCAGCGCC    0.33
33) AATCATTC    0.146
34) GAAGCGCA    -0.0259
35) CCGCGGAA    0.183
36) ATAGCGCC    0.357
37) GTGCGGAA    0.132
38) CTGCGGTA    0.0752
39) CTCGGGGC    -0.163
40) ACGCGGCG    0.488
41) ACGCGGAG    0.111
42) ACGAGCCA    -0.0521
43) AAGGCGAG    -0.158
44) ACGGCGAT    0.479
45) GGGCCGTA    0.369
46) CCGGCGAG    0.0395

Value source: the supplement of paper PMC3334620
